- experiment: Metabolic stability test in rat liver microsome
- Assay type: in vitro ADME
- condition-details: 60 min
property-measured: stability in liver microsome (residual ratio %)

P = Cn1cc(-c2cc(OCC(C)(C)O)cc3c2-c2ccccc2[C@]3(O)C(F)(F)F)cn1 [compound (B), reference compound]
Q = NC(=O)Cn1cc(-c2cc(OCCC34CC5CC(CC(O)(C5)C3)C4)cc3c2-c2ccccc2[C@]3(O)C(F)(F)F)cn1 [compound (A), reference compound]
Which value of stability in liver microsome (residual ratio %) is numerically greater: that of P or that of Q ? Lab note: record the label of whichever item you select.
P
(P: 92.1%, Q: 0.0%)
